meta.source: PubChem BioAssay (NCI)

- Test system: M14 melanoma
- Assay: NCI tumour cell line growth inhibition, 48 h
The entries below come with measured TGI values attached.
Measured Attribute: TGI

[
  {
    "Substance Smiles": "C=CC(=O)Nc1cccc(Nc2nc(Nc3ccc(N4CCN(C(C)=O)CC4)cc3OC)ncc2C(F)(F)F)c1",
    "Measured Attribute": "TGI",
    "Result": "> 100 µM"
  },
  {
    "Substance Smiles": "O=C(O)CSc1nnc2c3ccccc3c3ccccc3c2n1",
    "Measured Attribute": "TGI",
    "Result": "> 100 µM"
  },
  {
    "Substance Smiles": "Cc1c(C(=O)Nc2ccc(Cl)cc2)nc(N)nc1-c1cccc(Cl)c1",
    "Measured Attribute": "TGI",
    "Result": "> 100 µM"
  },
  {
    "Substance Smiles": "C[C@H](CCCOS(C)(=O)=O)[C@H]1CC[C@H]2[C@@H]3CC[C@@H]4C[C@H](OS(C)(=O)=O)CC[C@]4(C)[C@H]3CC[C@]12C",
    "Measured Attribute": "TGI",
    "Result": "> 2500 µM"
  },
  {
    "Substance Smiles": "CC(=O)Oc1ccc2c3c1[C@@H]1O[C@@H]1c1cccc(c1-3)[C@@H]1O[C@H]21",
    "Measured Attribute": "TGI",
    "Result": "3.27 µM"
  }
]

* * *

- System: HCT-15 colon
- Assay: NCI tumour cell line growth inhibition, 48 h
Numbered stars: 1 amine (or outer) side, 2 acyl side, 3 side chain; on linkers, the order of the positions; unused ones are H or OH. Bridge positions count the residues as written; N and C are the ends. Square brackets hold non-standard residues; d marks the D form. Peptide text beside a SMILES is read from it. I, II: the chains in the order shown. Actinocin(1to9) = Cc1c2oc3c(C)ccc(C(=O)[*:2])c3nc-2c(C(=O)[*:1])c(N)c1=O; NMeV = CN[CH](C(=O)O)C(C)C; Sar = CNCC(=O)O
Measured Attribute: TGI

[
  {
    "Molecule": "O=c1cc(-c2cccc(Br)c2)[nH]c2cc3c(cc12)OCO3",
    "Measured Attribute": "TGI",
    "Result": "> 77.6 µM"
  },
  {
    "Molecule": "Nc1ccc2c(c1)S(=O)(=O)c1cc(N)ccc1-2",
    "Measured Attribute": "TGI",
    "Result": "> 100 µM"
  },
  {
    "Molecule": "CCOC(=O)C1C(=O)c2cccc(OC)c2C2COC(=O)N12 (stereo not drawn)",
    "Measured Attribute": "TGI",
    "Result": "> 100 µM"
  },
  {
    "Molecule": "Cc1ccc(NCc2nnc3c(-c4ccccc4)nc4ccccc4n23)cc1",
    "Measured Attribute": "TGI",
    "Result": "> 100 µM"
  },
  {
    "Molecule": "COc1ccc(CNC(=O)c2c(C)n([O-])c3cc(F)c(F)cc3[n+]2=O)cc1",
    "Measured Attribute": "TGI",
    "Result": "3.43 µM"
  },
  {
    "Molecule": "COc1ccc(NC(C)=O)cc1N1C(=O)/C(=C\\c2cccc(Oc3ccccc3)c2)SC1c1ccccc1 (stereo not drawn)",
    "Measured Attribute": "TGI",
    "Result": "> 100 µM"
  },
  {
    "Molecule": "Fc1ccc(C(OCCN2CCC3CCC(C2)N3C/C=C/c2cccnc2)c2ccc(F)cc2)cc1 (stereo not drawn)",
    "Measured Attribute": "TGI",
    "Result": "21.6 µM"
  },
  {
    "Molecule": "CN1C(=O)C(O)C[C@@H]1c1ccc(F)cc1 (stereo partly drawn)",
    "Measured Attribute": "TGI",
    "Result": "> 100 µM"
  },
  {
    "Molecule": "Cc1ccc2nnc(NS(=O)(=O)c3cc(C)c(Cl)cc3S)n2n1",
    "Measured Attribute": "TGI",
    "Result": "> 100 µM"
  },
  {
    "Molecule": "N=c1oc2ccc(Cl)cc2cc1C(=O)NC1CCCCC1",
    "Measured Attribute": "TGI",
    "Result": "> 100 µM"
  },
  {
    "Molecule": "CCN1C(=O)N(CC)C2C1NN=c1s/c(=C\\c3cnc(C)n3C)c(=O)n12 (stereo not drawn)",
    "Measured Attribute": "TGI",
    "Result": "> 100 µM"
  },
  {
    "Molecule": "COc1cc2c3c4c1OCc1c5c(cc(c1-4)CC3[N+](C)(C)CC2)OCO5 (stereo not drawn)",
    "Measured Attribute": "TGI",
    "Result": "> 100 µM"
  },
  {
    "Molecule": "COc1cc(OC)c2c(c1Cl)O[C@]1(C2=O)C(OCc2ccccc2)=CC(=O)C[C@H]1C",
    "Measured Attribute": "TGI",
    "Result": "> 100 µM"
  },
  {
    "Molecule": "O=S1(=O)C=C(c2ccccc2)C(c2ccccc2)=C1",
    "Measured Attribute": "TGI",
    "Result": "3.15 µM"
  },
  {
    "Molecule": "COc1ccc([Se]c2ccc(OC)cc2)cc1",
    "Measured Attribute": "TGI",
    "Result": "> 100 µM"
  },
  {
    "Molecule": "Nc1cc(N)c2nc(-c3ccccc3)c(Oc3ccc(Cl)c(Cl)c3)nc2c1",
    "Measured Attribute": "TGI",
    "Result": "> 100 µM"
  },
  {
    "Molecule": "CC1OC(n2cnc3c(N)nc(Cl)nc32)C(C)(O)C1O (stereo not drawn)",
    "Measured Attribute": "TGI",
    "Result": "> 25 µM"
  },
  {
    "Molecule": "CCC(C)C1NC(=O)C(NC(=O)c2c3nc4c(C(=O)NC5C(=O)NC(C(C)C)C(=O)N6CCCC6C(=O)N(C)CC(=O)N(C)C(C(C)C)C(=O)OC5C)ccc(C)c4oc-3c(C)c(=O)c2N)C(C)OC(=O)C(C(C)C)N(C)C(=O)CN(C)C(=O)C2CCCN2C1=O (stereo not drawn) (I: TIP[Sar][NMeV] / II: TVP[Sar][NMeV]; ester I:1-I:C, II:1-II:C; linker I:N-II:N via Actinocin(1to9); configuration not given here)",
    "Measured Attribute": "TGI",
    "Result": "14.2 µM"
  }
]
